# study target: JH2 domain of human Tyk2 (Homo sapiens (Human), UniProt P29597)
# Sequence (P29597 575-876): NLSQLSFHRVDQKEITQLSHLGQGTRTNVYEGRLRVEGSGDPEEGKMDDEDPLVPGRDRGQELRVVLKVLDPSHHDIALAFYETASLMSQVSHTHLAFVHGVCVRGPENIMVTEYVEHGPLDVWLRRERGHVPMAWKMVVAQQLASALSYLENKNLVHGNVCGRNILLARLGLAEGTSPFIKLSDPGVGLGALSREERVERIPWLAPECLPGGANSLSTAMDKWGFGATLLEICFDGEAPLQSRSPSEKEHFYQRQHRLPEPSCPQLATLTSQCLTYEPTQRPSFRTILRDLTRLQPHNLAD
# protocol details: JH2 Biochemical Assay (TR-FRET probe displacement)
# Format: binding
# study conditions: TR-FRET probe displacement, JH2 domain of human Tyk2
pIC50: −log10 of the molar value.
experimental endpoint: pIC50

1) CCOc1cnc(NC(C)=O)cc1Nc1cc(-c2cnn(C3CCC3)c2)nc(C(C)(F)F)n1	≥ 8.00

Query string: What value of measured pIC50 is listed for "COc1cnc(NC(C)=O)cc1Nc1cc(C2CC2)nc(C(C)(F)F)n1" ?
Result string: ≥ 8.00

Query string: What value of measured pIC50 is listed for "CC(=O)Nc1cc(Nc2cc(C)nc(C(C)(F)F)n2)c(-c2cc(N(C)C)ncn2)cn1" ?
Result string: ≥ 8.00

Query string: What value of measured pIC50 is listed for COCCOc1cnc(NC(C)=O)cc1Nc1cccc(C2CCOC2)n1 (stereo not drawn) ?
Result string: ≥ 8.00

Query string: What value of measured pIC50 is listed for "CCc1cc(Nc2cc(NC(C)=O)ncc2OCCOC)nc(C(C)(F)F)n1" ?
Result string: ≥ 8.00

###

# study target: UniProt P29597
# protocol details: pSTAT4 Cell Assay (MSD, NK92 cells)
# Assay type: cell-based
# study conditions: MSD
pIC50: −log10 of the molar value. Counter-ions that a name gives are not always drawn.
experimental endpoint: pIC50

Past entries and their recorded results:
1. CC(=O)Nc1cc(Nc2cc(C)nc(C(C)(C)F)n2)c(-c2ncc(F)cn2)cn1	7.00 to 8.00
2. COCCOc1cnc(NC(C)=O)cc1Nc1cc(C2CC2)nc(C(C)(F)F)n1	≥ 8.00

Query string: What value of measured pIC50 is listed for COc1cnc(NC(C)=O)cc1Nc1cc(OC2CCC2)nc(C(C)(F)F)n1 [Example 455, trifluoroacetate] ?
Result string: ≥ 8.00

Query string: What value of measured pIC50 is listed for "CCOc1cnc(NC(C)=O)cc1Nc1ccnc(C(C)(C)F)n1" ?
Result string: 7.00 to 8.00

###

# study target: JH2 domain of human Tyk2 (Homo sapiens (Human), UniProt P29597)
# protocol details: JH2 Biochemical Assay (TR-FRET probe displacement)
# Assay type: binding
# study conditions: JH2 domain of human Tyk2, TR-FRET probe displacement
Parameter: IC50. Scope: all listed entries.

1) [2H]C([2H])([2H])C([2H])([2H])Oc1cnc(NC(C)=O)cc1Nc1cc(OC2CC2)nc(C(C)(F)F)n1	≤ 10 nM
2) CC(=O)Nc1cc(Nc2cc(C)nc(C(C)(F)F)n2)c(-c2cc3n(n2)CCN(C)C3=O)cn1	≤ 10 nM
3) CC(=O)Nc1cc(Nc2cc(C)nc(C(C)(F)F)n2)c(OCc2cnccc2C)cn1	≤ 10 nM

Then this compound:
Query string: What value of measured IC50 is listed for "CCc1cc(Nc2cc(NC(C)=O)ncc2-c2ccc(F)cn2)nc(C(C)(F)F)n1" ?
Result string: ≤ 10 nM

###

Parameter: IC50. Scope: all listed entries.
# study target: Tyk2 (Homo sapiens (Human))
# Sequence (P29597 whole entry): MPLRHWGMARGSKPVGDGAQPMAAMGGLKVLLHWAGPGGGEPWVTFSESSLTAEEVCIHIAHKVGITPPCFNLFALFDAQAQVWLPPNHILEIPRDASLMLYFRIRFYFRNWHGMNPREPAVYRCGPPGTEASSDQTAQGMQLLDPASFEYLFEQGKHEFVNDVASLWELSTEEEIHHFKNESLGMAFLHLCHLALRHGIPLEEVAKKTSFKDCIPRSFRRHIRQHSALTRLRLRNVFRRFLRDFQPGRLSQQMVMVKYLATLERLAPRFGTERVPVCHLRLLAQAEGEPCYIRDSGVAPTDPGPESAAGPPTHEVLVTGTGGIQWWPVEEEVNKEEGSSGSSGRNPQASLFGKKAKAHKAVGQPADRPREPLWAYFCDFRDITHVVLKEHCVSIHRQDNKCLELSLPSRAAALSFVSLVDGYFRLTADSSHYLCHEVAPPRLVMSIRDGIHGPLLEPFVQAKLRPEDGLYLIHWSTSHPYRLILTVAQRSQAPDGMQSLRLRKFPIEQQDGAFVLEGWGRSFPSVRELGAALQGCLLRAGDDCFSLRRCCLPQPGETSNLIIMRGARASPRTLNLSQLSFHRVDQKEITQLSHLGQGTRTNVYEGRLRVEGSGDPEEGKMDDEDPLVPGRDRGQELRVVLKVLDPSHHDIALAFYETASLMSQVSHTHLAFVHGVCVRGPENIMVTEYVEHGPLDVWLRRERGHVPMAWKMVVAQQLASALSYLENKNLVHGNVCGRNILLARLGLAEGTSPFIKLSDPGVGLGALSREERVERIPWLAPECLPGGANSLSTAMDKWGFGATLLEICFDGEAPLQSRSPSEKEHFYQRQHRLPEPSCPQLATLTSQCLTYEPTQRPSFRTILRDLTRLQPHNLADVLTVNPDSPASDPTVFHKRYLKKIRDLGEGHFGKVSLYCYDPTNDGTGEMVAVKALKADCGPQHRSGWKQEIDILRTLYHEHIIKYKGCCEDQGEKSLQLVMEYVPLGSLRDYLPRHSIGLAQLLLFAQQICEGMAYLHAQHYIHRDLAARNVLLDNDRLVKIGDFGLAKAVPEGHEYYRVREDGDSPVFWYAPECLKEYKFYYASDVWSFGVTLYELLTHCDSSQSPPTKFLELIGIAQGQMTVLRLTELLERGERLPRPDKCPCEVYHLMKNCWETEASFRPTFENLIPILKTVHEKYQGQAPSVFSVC
# protocol details: pSTAT4 Cell Assay (MSD, NK92 cells)
# Type: cell-based
# study conditions: MSD
# Method: The inhibitory potency of compounds of the disclosure against the Tyk2 kinase activity on STAT4 was evaluated using an MSD-platform plate-based assay format. NK92 cells natively expressing STAT4 and Tyk2 were serum-starved to reduce background phosphorylation levels, then cells were treated compounds for 1 hr with a 10-point four-fold dilution series starting at 10 μM. Cells were then stimulated with 30 ng/mL IL2 for 15 minutes. […]

Past entries and their recorded results:
1) [2H]C([2H])([2H])Oc1cnc(NC(C)=O)cc1Nc1cc(OC2CC2)nc(C(C)(F)F)n1 [Example 415]	≤ 0.01 µM
2) COc1cc(Nc2cc(NC(C)=O)ncc2-c2ccn(C)n2)nc(C(C)(F)F)c1 [Example 209]	≤ 0.01 µM
3) CC(=O)Nc1cc(Nc2cc(OC3CC3)nc(C(C)(F)F)n2)c(OCc2ccccc2)cn1 [Example 487]	≤ 0.01 µM
4) COc1ccnc(COc2cnc(NC(C)=O)cc2Nc2cc(C)nc(C(C)(F)F)n2)n1 [Example 345]	0.1 to 1 µM
5) CCc1noc(COc2cnc(NC(C)=O)cc2Nc2cc(C)nc(C(C)(F)F)n2)n1 [Example 331]	0.1 to 1 µM

Query string: What value of measured IC50 is listed for COCCc1cc(-c2cnc(NC(C)=O)cc2Nc2cc(C)nc(C(C)(F)F)n2)ncn1 [Example 745] ?
Result string: 0.01 to 0.1 µM

Query string: What value of measured IC50 is listed for COCc1ccc(-c2cnc(NC(C)=O)cc2Nc2cc(C)nc(C34CC(CO3)C4)n2)nc1 [Example 280] ?
Result string: ≤ 0.01 µM

Query string: What value of measured IC50 is listed for COc1cc(-c2cnc(NC(C)=O)cc2Nc2ccnc(C(C)(F)F)n2)nc(OC)n1 [Example 687] ?
Result string: 0.01 to 0.1 µM

###

Parameter: pIC50. Scope: all listed entries.
# study target: Tyk2 (Homo sapiens (Human))
# protocol details: pSTAT4 Cell Assay (MSD, NK92 cells)
# Assay type: cell-based
pIC50: −log10 of the molar value.

Past entries and their recorded results:
1. CC(=O)Nc1cc(Nc2cc(C)nc(C(C)(F)F)n2)c(-c2nc3n(n2)CCOC3)cn1 [Example 760]	7.00 to 8.00
2. CC(=O)Nc1cc(Nc2ccnc(C(C)(F)F)n2)c(-c2cnc(C#N)cn2)cn1 [Example 850]	6.00 to 7.00
3. CCc1cc(Nc2cc(NC(C)=O)ncc2-c2cnn(C)n2)nc(C(C)(F)F)n1 [Example 918]	≥ 8.00

Query string: Item: CC(=O)Nc1cc(Nc2cc(C(C)C)nc(C(C)(F)F)n2)c(-c2ccc3c(n2)OCC(C)(C)O3)cn1 [Example 822] Test system: Tyk2 (Homo sapiens (Human)) Read-out: pIC50 Value: ?
Result string: ≥ 8.00

Query string: Item: CC(=O)Nc1cc(Nc2cc(C)nc(C34COC(C3)C4)n2)c(-c2cc(C)ncn2)cn1 [Example 746] Test system: Tyk2 (Homo sapiens (Human)) Read-out: pIC50 Value: ?
Result string: 6.00 to 7.00

Query string: Item: CC(=O)Nc1cc(Nc2ccnc(C(C)(F)F)n2)c(-c2ccc(N3CCC4(COC4)C3)nn2)cn1 [Example 890] Test system: Tyk2 (Homo sapiens (Human)) Read-out: pIC50 Value: ?
Result string: ≥ 8.00

Query string: Item: COCc1cnn(-c2cnc(NC(C)=O)cc2Nc2cc(C)nc(C(C)(F)F)n2)c1 [Example 765] Test system: Tyk2 (Homo sapiens (Human)) Read-out: pIC50 Value: ?
Result string: 7.00 to 8.00

Query string: Item: CC(=O)Nc1cc(Nc2cc(OC3CC3)nc(C(C)(F)F)n2)c(F)cn1 [Example 818] Test system: Tyk2 (Homo sapiens (Human)) Read-out: pIC50 Value: ?
Result string: 6.00 to 7.00

Query string: Item: CC(=O)Nc1cc(Nc2ccnc(C(C)(F)F)n2)c(-c2cnc(N3CC4(CCOC4)C3)cn2)cn1 [Example 872] Test system: Tyk2 (Homo sapiens (Human)) Read-out: pIC50 Value: ?
Result string: 7.00 to 8.00

Query string: Item: CC(=O)Nc1cc(Nc2ccnc(C(C)(F)F)n2)c(-c2csc(C#N)n2)cn1 [Example 790] Test system: Tyk2 (Homo sapiens (Human)) Read-out: pIC50 Value: ?
Result string: ≥ 8.00

###

# study target: Tyk2 (Homo sapiens (Human))
# protocol details: pSTAT4 Cell Assay (MSD, NK92 cells)
# Format: cell-based
# study conditions: MSD
Parameter: IC50. Scope: all listed entries.

Past entries and their recorded results:
1) COCc1ccc(-c2cnc(NC(C)=O)cc2Nc2cc(C)nc(C34COC(C3)C4)n2)nc1	≤ 10 nM
2) CC(=O)Nc1cc(Nc2ccnc(C(C)(F)F)n2)c(-c2cnc(C(C)(F)F)cn2)cn1	100 to 1000 nM
3) CC(=O)Nc1cc(Nc2cc(C)nc(C(C)(F)F)n2)c(OCc2cncc(F)c2)cn1	10 to 100 nM

Then this compound:
Query string: What value of measured IC50 is listed for "COc1ccc(COc2cnc(NC(C)=O)cc2Nc2cc(C)nc(C(C)(F)F)n2)nc1" ?
Result string: ≤ 10 nM

###

Parameter: IC50. Scope: all listed entries.
# study target: JH2 domain of human Tyk2 (Homo sapiens (Human), UniProt P29597)
# protocol details: JH2 Biochemical Assay (TR-FRET probe displacement)
# Type: binding
# study conditions: JH2 domain of human Tyk2, TR-FRET probe displacement

1) COCCOc1cnc(NC(C)=O)cc1Nc1cncc(C(C)(C)F)n1 [Example 439]	≤ 0.01 µM
2) CCOc1cnc(NC(C)=O)cc1Nc1cc(NC)nc(C(C)(F)F)n1 [Example 485]	≤ 0.01 µM
3) CC(=O)Nc1cc(Nc2cc(C(C)C)nc(C(C)(F)F)n2)c(O[C@H]2C[C@@H](F)C2)cn1 [Example 411]	≤ 0.01 µM

Query string: Item: COc1cnc(NC(C)=O)cc1Nc1cc(-c2cc(C#N)c3nc(C)cn3c2)nc(C(C)(F)F)n1 [Example 402] Test system: JH2 domain of human Tyk2 (Homo sapiens (Human), UniProt P29597) Read-out: IC50 Value: ?
Result string: 0.01 to 0.1 µM

Query string: Item: CC(=O)Nc1cc(Nc2cc(C)nc(C(C)(F)F)n2)c(OCCF)cn1 [Example 404] Test system: JH2 domain of human Tyk2 (Homo sapiens (Human), UniProt P29597) Read-out: IC50 Value: ?
Result string: ≤ 0.01 µM

Query string: Item: COCCOc1cncc(-c2cnc(NC(C)=O)cc2Nc2ccnc(C(C)(F)F)n2)n1 [Example 691] Test system: JH2 domain of human Tyk2 (Homo sapiens (Human), UniProt P29597) Read-out: IC50 Value: ?
Result string: 0.01 to 0.1 µM

Query string: Item: CC(=O)Nc1cc(Nc2ccnc(C(C)(F)F)n2)c(-n2cc(C)cn2)cn1 [Example 728] Test system: JH2 domain of human Tyk2 (Homo sapiens (Human), UniProt P29597) Read-out: IC50 Value: ?
Result string: ≤ 0.01 µM
